assay: AUC (0 to infinity) in Sprague-Dawley rat at 10 mg/kg, iv measured for 1 to 1440 mins by LC-MS/MS analysis; type: ADME, organism-based; settings: in vivo, time 1-1440 min
readout: AUC(0-inf) (ng·h/mL)
# number only, unit ng·h/mL dropped from output

*Q* Fill in AUC(0-inf) for record Nc1nonc1-c1nc2ccccc2n1CC(=O)Nc1ccc(CCN2CCOCC2)cc1
*A* 3590

====

target: Cholinesterase (Homo sapiens)
Sequence (P06276 whole entry): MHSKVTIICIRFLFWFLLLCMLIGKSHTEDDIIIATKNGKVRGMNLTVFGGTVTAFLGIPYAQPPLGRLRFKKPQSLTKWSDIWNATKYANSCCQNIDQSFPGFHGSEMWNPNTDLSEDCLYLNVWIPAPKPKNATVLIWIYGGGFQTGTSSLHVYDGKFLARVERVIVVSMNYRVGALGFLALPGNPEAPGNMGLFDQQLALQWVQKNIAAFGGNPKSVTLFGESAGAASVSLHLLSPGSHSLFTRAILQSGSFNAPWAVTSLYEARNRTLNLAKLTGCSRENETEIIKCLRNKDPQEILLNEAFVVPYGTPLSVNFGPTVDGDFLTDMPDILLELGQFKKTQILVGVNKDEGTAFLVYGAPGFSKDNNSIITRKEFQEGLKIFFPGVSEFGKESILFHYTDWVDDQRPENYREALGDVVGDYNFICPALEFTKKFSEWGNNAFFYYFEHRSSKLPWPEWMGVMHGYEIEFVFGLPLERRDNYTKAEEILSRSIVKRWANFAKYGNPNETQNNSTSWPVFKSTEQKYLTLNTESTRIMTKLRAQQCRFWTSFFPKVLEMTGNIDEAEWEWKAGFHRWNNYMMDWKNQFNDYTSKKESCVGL
Note to self: use criterion met only for IC50 readings below 100 nM; a reading exactly at 100 nM still gets criterion not met.

Nc1nonc1-c1nc2ccccc2n1CC(=O)Nc1ccc(CCN2CCOCC2)cc1 | criterion met
Nc1nonc1-c1nc2ccccc2n1CC(=O)Nc1cccc(N2CCCC2)c1 | criterion met

*Q* Please check: IC50 for Nc1nonc1-c1nc2ccccc2n1CC(=O)Nc1ccc(CN2CCOCC2)cc1 , strictly under 100 nM or not?
*A* criterion not met

*Q* Please check: IC50 for Nc1nonc1-c1nc2ccccc2n1CC(=O)Nc1cccc(N2CCCCC2)c1 , strictly under 100 nM or not?
*A* criterion met

*Q* Please check: IC50 for Nc1nonc1-c1nc2ccccc2n1CC(=O)Nc1cncc(Br)c1 , strictly under 100 nM or not?
*A* criterion not met

*Q* Please check: IC50 for CN1CCN(c2cccc(NC(=O)Cn3c(-c4nonc4N)nc4ccccc43)c2)CC1 , strictly under 100 nM or not?
*A* criterion not met
